- SUBJECT_OF_TEST: human Siglec-7 on primary human monocyte-derived dendritic cells (human, UniProt Q9Y286 19-467)
- Sequence (Q9Y286 19-467): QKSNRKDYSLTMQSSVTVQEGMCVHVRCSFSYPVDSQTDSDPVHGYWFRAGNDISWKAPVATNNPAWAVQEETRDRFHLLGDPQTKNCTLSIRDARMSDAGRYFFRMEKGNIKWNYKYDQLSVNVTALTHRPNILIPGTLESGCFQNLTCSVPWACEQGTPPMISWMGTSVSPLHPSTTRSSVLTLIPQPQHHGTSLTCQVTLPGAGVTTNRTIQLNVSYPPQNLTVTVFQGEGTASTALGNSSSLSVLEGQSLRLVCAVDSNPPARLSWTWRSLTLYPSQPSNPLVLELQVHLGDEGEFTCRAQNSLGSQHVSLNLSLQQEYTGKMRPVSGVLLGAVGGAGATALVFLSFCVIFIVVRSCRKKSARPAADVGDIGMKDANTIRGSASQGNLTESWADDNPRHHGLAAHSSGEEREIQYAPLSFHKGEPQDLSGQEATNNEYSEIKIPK
- PROTOCOL_SUMMARY: cell-based or functional assay
REPORTED_METRIC: Fold increase in potency compared to Chimeric Ab (fold)
# value in fold; strip the unit string

BINDER	UNIT_OF_MEASURE	READOUT_VALUE
S7AB-H8.38 (antibody, V domains shown) VH: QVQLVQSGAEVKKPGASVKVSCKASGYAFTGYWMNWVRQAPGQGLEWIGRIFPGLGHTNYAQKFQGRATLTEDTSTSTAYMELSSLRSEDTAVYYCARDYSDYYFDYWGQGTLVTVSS VL: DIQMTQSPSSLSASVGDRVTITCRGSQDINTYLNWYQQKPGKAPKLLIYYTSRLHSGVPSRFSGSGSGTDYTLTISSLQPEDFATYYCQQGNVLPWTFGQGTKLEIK	fold	14.5

# evaluate next
**Query** // Input: S7AB-H8.35.2 (antibody, V domains shown) VH: QVQLVQSGAEVKKPGASVKVSCKASGYAFTEAWMNWVRQARGQRLEWIGRIFPGYGHTNYAQKFQGRATLTEDTSTSTAYMELSSLRSEDTAVYYCARDYSDYYFDYWGQGTLVTVSS VL: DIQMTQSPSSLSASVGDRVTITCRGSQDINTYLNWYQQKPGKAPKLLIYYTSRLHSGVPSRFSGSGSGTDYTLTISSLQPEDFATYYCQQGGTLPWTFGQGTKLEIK . Output its Fold increase in potency compared to Chimeric Ab only.
**Result** 5.3
